molecular target: EPHB1 (UniProt P54762); experiment: phosphorylation enrichment, bacterial display (enrichment ratio); higher = better substrate or ligand; peptides without Tyr show the background
Sequence (P54762 whole entry, looked up): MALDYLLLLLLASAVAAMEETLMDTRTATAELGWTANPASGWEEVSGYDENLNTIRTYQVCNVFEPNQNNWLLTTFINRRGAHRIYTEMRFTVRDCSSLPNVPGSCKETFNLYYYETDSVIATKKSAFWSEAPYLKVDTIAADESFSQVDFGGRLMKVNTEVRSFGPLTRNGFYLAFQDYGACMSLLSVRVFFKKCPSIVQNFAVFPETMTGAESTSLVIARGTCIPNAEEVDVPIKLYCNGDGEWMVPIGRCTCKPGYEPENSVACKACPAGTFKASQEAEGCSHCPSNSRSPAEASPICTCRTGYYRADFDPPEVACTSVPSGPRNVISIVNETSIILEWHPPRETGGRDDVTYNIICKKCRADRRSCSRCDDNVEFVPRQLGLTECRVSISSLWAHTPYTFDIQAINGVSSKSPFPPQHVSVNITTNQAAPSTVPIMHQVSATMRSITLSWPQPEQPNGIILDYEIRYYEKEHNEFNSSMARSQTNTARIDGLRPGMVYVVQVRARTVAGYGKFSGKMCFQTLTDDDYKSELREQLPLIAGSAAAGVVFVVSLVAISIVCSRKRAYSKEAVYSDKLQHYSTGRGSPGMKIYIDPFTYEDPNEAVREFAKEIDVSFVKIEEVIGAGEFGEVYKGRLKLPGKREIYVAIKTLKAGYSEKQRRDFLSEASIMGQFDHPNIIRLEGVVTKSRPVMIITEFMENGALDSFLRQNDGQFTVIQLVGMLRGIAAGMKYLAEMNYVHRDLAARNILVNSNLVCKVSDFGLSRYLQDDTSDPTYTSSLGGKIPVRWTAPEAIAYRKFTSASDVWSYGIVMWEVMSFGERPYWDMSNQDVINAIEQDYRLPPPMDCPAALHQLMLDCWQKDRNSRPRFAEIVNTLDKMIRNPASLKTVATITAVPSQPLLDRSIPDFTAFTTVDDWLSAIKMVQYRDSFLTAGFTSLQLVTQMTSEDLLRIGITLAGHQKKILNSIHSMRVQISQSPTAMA
Could you please report measured phosphorylation enrichment for the items listed next?
Answer field: number only, no words.

Item NTYENYWPFYQ [GATM_Y103_K102N] has what recorded phosphorylation enrichment?
17.2

Item EQYELYCEMGS [CBL_Y371] has what recorded phosphorylation enrichment?
7.29

Item SSTASYFKAPG [RFX2_Y108_E110K] has what recorded phosphorylation enrichment?
0.471

Item FSEVRYMKEPF [HIPK4_Y170_V171M_YF] has what recorded phosphorylation enrichment?
0.473

Item GACGGYCSVLG [RAB18_Y202] has what recorded phosphorylation enrichment?
0.358

Item DDSSAYCSVDE [BCKDHA_Y345_R346C] has what recorded phosphorylation enrichment?
0.621

Item YFVVEYRNQKP [MUC17_Y4332_D4334N] has what recorded phosphorylation enrichment?
0.931

Item AIFWRYSKFFD [SH3PXD2B_Y45_R43W_YF] has what recorded phosphorylation enrichment?
0.493

Item VGTKRYMAPDV [ACVRL1_Y375_E379D] has what recorded phosphorylation enrichment?
0.42

Item SLLVVYPWTQR [HBB_Y36_R31S] has what recorded phosphorylation enrichment?
0.462

Item KNRDVYSSDFF [USP24_Y2134_YF] has what recorded phosphorylation enrichment?
1.69

Item EEQKKYYNAVK [SCN5A_Y1494_M1498V] has what recorded phosphorylation enrichment?
0.368

Item EIELAYRRRPP [GRIN2B_Y1109] has what recorded phosphorylation enrichment?
0.448

---

target: SHP2-C SH2; test: SH2 binding enrichment of the phosphorylated peptide, bacterial display (enrichment ratio); higher = better substrate or ligand; peptides without Tyr show the background;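 further: peptide library displayed on the E. coli surface as eCPX fusions, selected cells deep-sequenced, score is each peptide's frequency after selection divided by its frequency in the input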
Please mark criterion met if the recorded SH2 binding enrichment is equal to or greater than 0.8, and criterion not met if it falls below.

Could you verify whether the entry GCLSKYSGVFS [TUBGCP6_Y1624_V1621L] shows SH2 binding enrichment of no less than 0.8?
criterion met

Could you verify whether the entry QGIPRYHSQSP [FOXF1_Y331] shows SH2 binding enrichment of no less than 0.8?
criterion not met

Could you verify whether the entry MFRAGYDTKQE [F10_Y407_C404R] shows SH2 binding enrichment of no less than 0.8?
criterion met

Could you verify whether the entry LYSGDYYRIQG [DDR2_Y740] shows SH2 binding enrichment of no less than 0.8?
criterion not met

Could you verify whether the entry YPPTHYIRRVP [SLC4A11_Y820] shows SH2 binding enrichment of no less than 0.8?
criterion not met

Could you verify whether the entry MGRVKYGAFIN [GLB1_Y485_N484K_YF] shows SH2 binding enrichment of no less than 0.8?
criterion met

Could you verify whether the entry LTVVIYVLVGR [EPHA3_Y561_I564V] shows SH2 binding enrichment of no less than 0.8?
criterion met

Could you verify whether the entry HPHECYAKVFD [ALB_Y394_D389H] shows SH2 binding enrichment of no less than 0.8?
criterion met

Could you verify whether the entry GACGGYCSVLG [RAB18_Y202] shows SH2 binding enrichment of no less than 0.8?
criterion met

Could you verify whether the entry VTVLDYDKTGK [SYT1_Y365_I368T] shows SH2 binding enrichment of no less than 0.8?
criterion not met

Could you verify whether the entry ANVIHYFPTQA [SLC25A4_Y81_R80H] shows SH2 binding enrichment of no less than 0.8?
criterion met

Could you verify whether the entry SYDLDYDSVQP [MYC_Y16_N11S] shows SH2 binding enrichment of no less than 0.8?
criterion not met

Could you verify whether the entry PVKSEYSSIKL [NPC2_Y119_P120S] shows SH2 binding enrichment of no less than 0.8?
criterion met

---

target: Jak2 (UniProt O60674); assay: phosphorylation enrichment, bacterial display (enrichment ratio); higher = better substrate or ligand; peptides without Tyr show the background
Sequence (O60674 whole entry, looked up): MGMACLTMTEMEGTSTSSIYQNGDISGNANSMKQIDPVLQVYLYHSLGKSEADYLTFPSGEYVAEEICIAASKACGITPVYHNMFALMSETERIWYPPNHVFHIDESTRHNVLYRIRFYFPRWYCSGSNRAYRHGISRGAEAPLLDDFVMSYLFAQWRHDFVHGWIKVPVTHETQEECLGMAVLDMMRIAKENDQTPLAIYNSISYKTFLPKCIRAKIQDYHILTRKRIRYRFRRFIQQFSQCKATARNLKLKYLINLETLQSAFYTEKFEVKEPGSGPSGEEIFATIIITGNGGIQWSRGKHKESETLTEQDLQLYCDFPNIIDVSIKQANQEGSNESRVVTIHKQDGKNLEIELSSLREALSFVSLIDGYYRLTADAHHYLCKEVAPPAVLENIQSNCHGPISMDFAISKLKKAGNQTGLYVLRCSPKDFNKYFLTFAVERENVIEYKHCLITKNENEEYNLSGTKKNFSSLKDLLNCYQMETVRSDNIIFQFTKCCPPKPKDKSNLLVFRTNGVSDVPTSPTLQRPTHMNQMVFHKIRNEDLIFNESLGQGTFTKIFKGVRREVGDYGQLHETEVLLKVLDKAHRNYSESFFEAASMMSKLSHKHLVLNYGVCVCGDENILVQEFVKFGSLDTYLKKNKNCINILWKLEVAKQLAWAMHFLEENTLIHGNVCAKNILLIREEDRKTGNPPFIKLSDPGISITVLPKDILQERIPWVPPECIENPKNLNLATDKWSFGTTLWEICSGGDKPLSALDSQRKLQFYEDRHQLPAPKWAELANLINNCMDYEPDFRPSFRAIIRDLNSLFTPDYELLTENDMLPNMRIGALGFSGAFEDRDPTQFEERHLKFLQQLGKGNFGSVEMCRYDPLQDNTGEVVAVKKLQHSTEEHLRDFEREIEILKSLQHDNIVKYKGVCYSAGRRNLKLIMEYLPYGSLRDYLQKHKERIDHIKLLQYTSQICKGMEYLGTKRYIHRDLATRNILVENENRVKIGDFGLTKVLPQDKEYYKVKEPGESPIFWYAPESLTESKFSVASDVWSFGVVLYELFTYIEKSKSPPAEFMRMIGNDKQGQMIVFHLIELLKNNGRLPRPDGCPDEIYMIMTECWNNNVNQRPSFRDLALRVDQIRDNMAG
quantity: phosphorylation enrichment
Answer field: number only, no words.

Item FFVVEYRDQKP [MUC17_Y4332_YF] has what recorded phosphorylation enrichment?
1.03

Item PKDSAYVTWEP has what recorded phosphorylation enrichment?
1.36

Item LQFRNYQQLFD [MAN2A1_Y442_K440R] has what recorded phosphorylation enrichment?
2.42

Item ESPGLCGFLNV [BCR_Y910_Y910C] has what recorded phosphorylation enrichment?
0.979

Item DRSSLYLVAGP [KIAA1614_Y1083_N1078D] has what recorded phosphorylation enrichment?
1.08

Item SGSIHYSHVPR [GLB1_Y57_R59H] has what recorded phosphorylation enrichment?
0.6

Item LGKLIYPVGFW [NTHL1_Y177] has what recorded phosphorylation enrichment?
1.67

Item EQKKYYNAVKK [SCN5A_Y1495_M1498V] has what recorded phosphorylation enrichment?
0.634

Item IKAGAYDFPSP [CAMK2A_Y230] has what recorded phosphorylation enrichment?
0.548

Item GNLLIYTEFGN [HGD_Y166_K171N] has what recorded phosphorylation enrichment?
0.997

Item VIESSYTSADG [DHCR7_Y382_C380S] has what recorded phosphorylation enrichment?
0.873

Item VTHKEYFIFLE [CAMKV_Y95_R92H] has what recorded phosphorylation enrichment?
1.29

Item SLLKDYSPQLQ [OTC_Y345_T343K] has what recorded phosphorylation enrichment?
0.624

Item CLRIDYERVSQ [DSP_Y1542_R1537C] has what recorded phosphorylation enrichment?
1.38

Item DDSSAYCSVDE [BCKDHA_Y345_R346C] has what recorded phosphorylation enrichment?
0.978

Item KGTAGYTTVAV [RET_Y752_R749T] has what recorded phosphorylation enrichment?
0.398

Item KDHRDYKYQPR [SOX9_Y172_P170R] has what recorded phosphorylation enrichment?
0.779

Item HKGASYAFRLS [PTPRD_Y891_V892A] has what recorded phosphorylation enrichment?
0.827

Item QGIPRYHSQSP [FOXF1_Y331] has what recorded phosphorylation enrichment?
0.691

Item VVIMLYGVDSR [PKD1_Y3143_G3139V] has what recorded phosphorylation enrichment?
1.35

Item QHVPDYRQNGF [PCDHGA1_Y890_V894G_YF] has what recorded phosphorylation enrichment?
0.826

Item NGQALYAACQT [XDH_Y1092_V1091L] has what recorded phosphorylation enrichment?
0.687

Item HITQVYGFYDE [PPP2CA_Y127_Q122H] has what recorded phosphorylation enrichment?
1.88

Item FSMGCYEIFLG [HMGCL_Y198_S201Y_YF] has what recorded phosphorylation enrichment?
1.51

Item LERFIYNREEL [HLA-DPB1_Y59_F64L_YF] has what recorded phosphorylation enrichment?
1.54

Item IDAICYFRMEN [NPHS2_Y194_YF] has what recorded phosphorylation enrichment?
2.44

Item INNIDYYKNTT [FGFR2_Y656_K659N] has what recorded phosphorylation enrichment?
0.59

Item LPKVSYMKAID [GLRA1_Y307_V308M] has what recorded phosphorylation enrichment?
0.707

Item RVLKLYGCSPS [ASTL_Y279] has what recorded phosphorylation enrichment?
0.983

Item DPEATYTTSGS [EPHA2_Y772_G777S] has what recorded phosphorylation enrichment?
0.694

Item QFPDIYAREEV [CRX_Y67_V66I_YF] has what recorded phosphorylation enrichment?
2.02

Item KLFRVYCDMNT [FGB_Y269_P265L_YF] has what recorded phosphorylation enrichment?
1.17

Item ADFFDYGHGLS [KHDRBS3_Y304_YF] has what recorded phosphorylation enrichment?
1.03

Item LGRGKSSEVFE [CSNK2A1_Y50_Y50S] has what recorded phosphorylation enrichment?
0.996

Item RCYVYYYSYLL [PTEN_Y177_R173C] has what recorded phosphorylation enrichment?
2.13

Item KWTVDYLGQVG [TYW5_Y48_S50G] has what recorded phosphorylation enrichment?
0.845

Item FRRITYHNWRH [PDE6B_Y556_YF] has what recorded phosphorylation enrichment?
0.627

Item NKPTVCGVSPN [ABL1_Y226_Y226C] has what recorded phosphorylation enrichment?
0.759

Item DDPRTYQKYGY [OAS1_Y362_R361T] has what recorded phosphorylation enrichment?
0.635

Item GSESDYIIMPN [SCARB1_Y133_V135I] has what recorded phosphorylation enrichment?
0.919

Item PVEAAYQKVVA [HBB_Y131_Q128E] has what recorded phosphorylation enrichment?
0.556

Item VVEYGYEFFAK [PPP1CB_Y254_D252Y] has what recorded phosphorylation enrichment?
1.47

Item RLLVVYPWNQR [HBB_Y36_T39N] has what recorded phosphorylation enrichment?
1.04

Item KNRDVYSSDFF [USP24_Y2134_YF] has what recorded phosphorylation enrichment?
0.693

Item PHQTIYGALMI [FGF23_Y70_S71G] has what recorded phosphorylation enrichment?
0.721

Item ECIEFYELDKK [PMM2_Y145_R141C] has what recorded phosphorylation enrichment?
0.977

Item PQDVTYARLHS [LILRB4_Y412_Q414R] has what recorded phosphorylation enrichment?
0.518

Item YAADYYKLLGN [ROR2_Y646] has what recorded phosphorylation enrichment?
4.53

Item VILARYGPAWR [CYP2D6_Y124_F120I] has what recorded phosphorylation enrichment?
0.808

Item VTAALYGCLYE [BTD_Y536_R538C] has what recorded phosphorylation enrichment?
1.24

Item YIIFIYAMKKK [SLCO1B1_Y645_L643F] has what recorded phosphorylation enrichment?
0.545

Item HKLSYYEYDFE [BTK_Y40] has what recorded phosphorylation enrichment?
1.6

Item QRRNVYFFSFL [PTEN_Y176_Y174N_YF] has what recorded phosphorylation enrichment?
1.13

Item FQVRRYDCDCD [CRYGS_Y21_G18V] has what recorded phosphorylation enrichment?
1.32

Item LSVEIHDRREF [ITGB7_Y753_Y753H_YF] has what recorded phosphorylation enrichment?
1.3

Item ISRASYYRKGG [ALK_Y1282_Y1278S] has what recorded phosphorylation enrichment?
0.51
